- assay overview: activity coefficient (dimensionless); of the first substance listed, at infinite dilution; xn = mol fraction of the nth substance listed
- setup conditions: 333.2 K; 101 kPa; Liquid; Chromatography; x1 = 0
In plain terms, low activity coefficient, meaning strictly below 40, gives satisfied, and everything else gives not satisfied.

C=CCCCCCC [oct-1-ene] + OCCOCCO; not satisfied

[in] # strict comparison: is reported activity coefficient < 40? input = CO [methanol] + OCCOCCOCCO
[out] satisfied

[in] # strict comparison: is reported activity coefficient < 40? input = C=CCCCC [hex-1-ene] + OCCOCCOCCO
[out] satisfied

[in] # strict comparison: is reported activity coefficient < 40? input = C#CCCCCC [1-heptyne] + OCCOCCO
[out] satisfied

[in] # strict comparison: is reported activity coefficient < 40? input = C1CCCCCCC1 [cyclooctane] + OCCOCCOCCO
[out] satisfied

[in] # strict comparison: is reported activity coefficient < 40? input = C#CCCCCC [1-heptyne] + OCCOCCOCCO
[out] satisfied

[in] # strict comparison: is reported activity coefficient < 40? input = CCc1ccccc1 [ethylbenzene] + OCCOCCO
[out] satisfied

[in] # strict comparison: is reported activity coefficient < 40? input = CC(C)O [propan-2-ol] + OCCOCCOCCO
[out] satisfied

meta.source: the NIST ThermoML archive (doi:10.1016/j.jct.2013.05.011)
